meta.source: PubChem BioAssay (NCI)

# System: SF-268 CNS
# assay overview: NCI tumour cell line growth inhibition, 48 h

| compound | TGI |
| --- | --- |
| CN1c2ccccc2S(=O)(=O)n2c(COc3ccccc3)nnc21 | > 100 µM |
| CCN(CC)CC(O)c1cc(-c2ccc(Cl)cc2)nc2cc(Cl)ccc12 (stereo unspecified) | 8.06 µM |
| CCOC(=O)C(NC(=O)c1ccccc1)(Nc1ccc(S(=O)(=O)Nc2ccc(OC)nn2)cc1)C(F)(F)F (stereo unspecified) | > 100 µM |
| Cc1cc2c(C)nn(Cc3ccccc3Cl)c2c(C#N)c1C | > 100 µM |
| O=C(CC(=O)N1N=C(c2ccccc2)C(N=Nc2ccccc2Cl)C1=O)Nc1ccccc1Cl (stereo unspecified) | > 100 µM |
| O=C(c1ccccc1)c1c2n(c3c1cc(O)c1ccccc13)CCN2 | 9.85 µM |
| N#Cc1c(O)c(C=O)c(=O)n2c1[nH]c1ccccc12 | > 100 µM |
| N/C(=N/N=C/c1cccc(F)c1)NO | 68.7 µM |
| c1ccc(Sc2nc(Sc3ccccc3)nc(Sc3ccccc3)n2)cc1 | > 100 µM |
| O=C1CCc2ccccc2O1 | > 100 µM |
| Nc1ccn(CCCC(c2ccccc2)P(=O)(O)O)c(=O)n1 (stereo unspecified) | > 100 µM |
